molecular target: Factor X (FX), P00742
Sequence (P00742 whole entry, looked up): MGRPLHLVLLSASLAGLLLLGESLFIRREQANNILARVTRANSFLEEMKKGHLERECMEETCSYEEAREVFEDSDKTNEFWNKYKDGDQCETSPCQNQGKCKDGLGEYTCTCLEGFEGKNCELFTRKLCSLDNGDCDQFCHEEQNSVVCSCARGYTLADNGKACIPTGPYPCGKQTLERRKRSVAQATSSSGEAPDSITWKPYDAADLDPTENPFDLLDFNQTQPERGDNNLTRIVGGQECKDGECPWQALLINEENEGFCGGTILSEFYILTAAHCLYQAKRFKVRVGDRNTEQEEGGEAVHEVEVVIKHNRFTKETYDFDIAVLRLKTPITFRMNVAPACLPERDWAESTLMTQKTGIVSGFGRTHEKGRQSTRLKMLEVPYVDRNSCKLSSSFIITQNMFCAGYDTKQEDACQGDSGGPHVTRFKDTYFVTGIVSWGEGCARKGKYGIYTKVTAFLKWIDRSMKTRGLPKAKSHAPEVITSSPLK
recorded metric: kcat/KM
Returns: string containing the number followed by the unit.

Give recorded kcat/KM. FIXa-Y155F/R318Y/T343R/E410N (protein) chain 1: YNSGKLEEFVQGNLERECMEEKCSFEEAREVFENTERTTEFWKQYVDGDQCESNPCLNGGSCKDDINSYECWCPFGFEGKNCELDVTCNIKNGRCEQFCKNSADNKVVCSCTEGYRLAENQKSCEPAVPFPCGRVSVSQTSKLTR chain 2: VVGGEDAKPGQFPWQVVLNGKVDAFCGGSIVNEKWIVTAAHCVETGVKITVVAGEHNIEETEHTEQKRNVIRIIPHHNYNAAINKYNHDIALLELDEPLVLNSYVTPICIADKEYTNIFLKFGSGYVSGWGRVFHKGYSALVLQYLRVPLVDRATCLRSTKFRIYNNMFCAGFHEGGRDSCQGDSGGPHVTEVEGTSFLTGIISWGEECAMKGKYGIYTKVSRYVNWIKNKTKLT 1.5e+08 M⁻¹ s⁻¹

Could you please provide reported kcat/KM for FIXa-K247N/N249S/R338E/T343R/R403E (protein) chain 1: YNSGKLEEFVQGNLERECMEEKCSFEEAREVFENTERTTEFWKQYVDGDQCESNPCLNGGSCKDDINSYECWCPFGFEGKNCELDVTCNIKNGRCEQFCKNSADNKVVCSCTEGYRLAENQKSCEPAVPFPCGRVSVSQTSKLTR chain 2: VVGGEDAKPGQFPWQVVLNGKVDAFCGGSIVNEKWIVTAAHCVETGVKITVVAGEHNIEETEHTEQNRSVIRIIPHHNYNAAINKYNHDIALLELDEPLVLNSYVTPICIADKEYTNIFLKFGSGYVSGWGRVFHKGRSALVLQYLRVPLVDRATCLESTKFRIYNNMFCAGFHEGGRDSCQGDSGGPHVTEVEGTSFLTGIISWGEECAMKGKYGIYTKVSEYVNWIKEKTKLT ? Thanks! 5.6e+08 M⁻¹ s⁻¹

Look up and report measured kcat/KM for this entry: FIXa-Y155F/K247N/N249S/R318Y/T343R/R403E (protein) chain 1: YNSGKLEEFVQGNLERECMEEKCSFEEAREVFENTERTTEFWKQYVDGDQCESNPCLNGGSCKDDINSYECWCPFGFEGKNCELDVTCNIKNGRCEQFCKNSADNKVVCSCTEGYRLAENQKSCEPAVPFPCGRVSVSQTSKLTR chain 2: VVGGEDAKPGQFPWQVVLNGKVDAFCGGSIVNEKWIVTAAHCVETGVKITVVAGEHNIEETEHTEQNRSVIRIIPHHNYNAAINKYNHDIALLELDEPLVLNSYVTPICIADKEYTNIFLKFGSGYVSGWGRVFHKGYSALVLQYLRVPLVDRATCLRSTKFRIYNNMFCAGFHEGGRDSCQGDSGGPHVTEVEGTSFLTGIISWGEECAMKGKYGIYTKVSEYVNWIKEKTKLT 1.3e+08 M⁻¹ s⁻¹

Kindly indicate its recorded kcat/KM. Item: FIXa-Y155F/T343R/R403E/E410N (protein) chain 1: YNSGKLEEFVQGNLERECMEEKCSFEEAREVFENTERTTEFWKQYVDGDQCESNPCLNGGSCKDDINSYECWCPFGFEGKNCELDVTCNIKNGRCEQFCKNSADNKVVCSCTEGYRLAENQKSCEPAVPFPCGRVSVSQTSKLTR chain 2: VVGGEDAKPGQFPWQVVLNGKVDAFCGGSIVNEKWIVTAAHCVETGVKITVVAGEHNIEETEHTEQKRNVIRIIPHHNYNAAINKYNHDIALLELDEPLVLNSYVTPICIADKEYTNIFLKFGSGYVSGWGRVFHKGRSALVLQYLRVPLVDRATCLRSTKFRIYNNMFCAGFHEGGRDSCQGDSGGPHVTEVEGTSFLTGIISWGEECAMKGKYGIYTKVSEYVNWIKNKTKLT 1.5e+08 M⁻¹ s⁻¹
